We begin with IC50 values for MAGL (Homo sapiens, UniProt Q99685), as collected from the published literature.
Lab book: enter the figure in nM, no units written.

Query: Which IC50 is listed for O=C(c1ccc2nc(N3CCC(F)(F)CC3)sc2c1)N1CC(N2CCN(C(=O)c3nccs3)CC2)C1 ?
Response: 16

Query: # lookup: IC50 of O=C(c1cccc(-c2[nH]ncc2F)c1Cl)N1CCN2C[C@@](O)(c3ccc(F)c(Cl)c3)CC[C@@H]2C1
Response: 0.74

Query: Bench note: what IC50 did O=C(CCOCCNC(=O)CCc1ccc2n1[B-](F)(F)[N+]1=C(c3ccc[nH]3)C=CC1=C2)NCCOc1cccc(C(c2ccccc2)C2CCN(C(=O)N3CC[C@@H]4OCC(=O)N[C@@H]4C3)CC2)c1 (single isomer, unassigned) show?
Response: 0.3

Query: State the recorded IC50 for this entry: CC(C)=Cc1c(C(=O)N2CC(N3CCN(C(=O)c4ccccc4)CC3)C2)sc2cc(C(F)(F)F)ccc12
Response: 240

###

Record: compiled pIC50 on MAGL (Homo sapiens, UniProt Q99685) from multiple reports.
Sequence (Q99685 whole entry, species assumed): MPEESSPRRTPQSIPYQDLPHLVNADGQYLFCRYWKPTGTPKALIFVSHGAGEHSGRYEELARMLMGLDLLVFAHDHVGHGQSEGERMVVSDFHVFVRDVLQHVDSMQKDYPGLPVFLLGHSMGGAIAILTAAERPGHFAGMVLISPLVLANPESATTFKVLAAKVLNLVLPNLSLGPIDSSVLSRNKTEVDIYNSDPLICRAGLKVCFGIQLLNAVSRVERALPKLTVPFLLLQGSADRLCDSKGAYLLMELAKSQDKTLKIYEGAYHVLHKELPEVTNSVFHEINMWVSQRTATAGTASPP
pIC50: −log10 of the molar value.
Assign true (1) to entries whose pIC50 meets or exceeds 7; assign false (0) to the rest.

Query: Dear colleague, could you confirm whether O=C(c1cc2cc(C(F)(F)F)ccc2s1)N1CCN(C2CN(C(=O)c3nccs3)C2)CC1 has pIC50 at or above 7?
Response: true (1)

Query: Please tell me: is the compound O=C(c1cc(-c2ccc(Cl)cc2)n(-c2ccc(Cl)c(Cl)c2)n1)N1CC(N2CCN(C(=O)c3nccs3)CC2)C1 at or over 7 in terms of pIC50?
Response: true (1)

Query: Determine whether measured pIC50 meets or exceeds 7 for O=C(c1ccc(-c2cccc(C(F)(F)F)c2)cc1)N1CCN(C2CN(C(=O)c3cscn3)C2)CC1
Response: true (1)

Query: Please indicate if the recorded pIC50 for COc1cccc(C(=O)N2CCN3C[C@@H](c4cc(Cl)ccn4)OC[C@@H]3C2)c1Cl meets or exceeds 7.
Response: false (0)

Query: Is reported pIC50 greater than or equal to 7 here: O=C1CO[C@H]2CCN(C(=O)N3CC(c4ccc(Oc5cnccc5Cl)cc4)C3)C[C@H]2N1
Response: true (1)

Query: Record O=C(c1cscn1)N1CC[C@H](NC2CN(C(=O)c3cc4ccc(-c5ccccc5)cc4s3)C2)C1 ; criterion: pIC50 no lower than 7. Met?
Response: true (1)

Query: Given the entry Cc1ccc2oc(N3CCN(C(=O)c4ccc(-c5nnc(C(C)(C)C)o5)c(C)c4)CC3)nc2n1 , answer whether its pIC50 meets or surpasses 7.
Response: true (1)

Query: Entry O=C(c1cscn1)N1CC[C@H](NC2CN(C(=O)c3sc4cc(Br)ccc4c3Cl)C2)C1 : is its pIC50 no less than 7?
Response: true (1)

Query: Reported pIC50 at or above 7? O=C1CO[C@H]2CCN(C(=O)N3CC4(CC(Oc5cc(=O)oc6ccccc56)C4)C3)C[C@H]2N1
Response: false (0)

Query: Check this compound for pIC50 at or above 7: O=C(c1ccc2c(ccn2-c2ccc(F)c(F)c2)c1)N1CCC(C2CN(C(=O)c3nccs3)C2)CC1
Response: true (1)

Query: In plain terms: is recorded pIC50 at least 7 for COc1ccc2c(CN3CCN(C(=O)N4CC[C@@H]5OCC(=O)N[C@@H]5C4)CC3)cc(=O)oc2c1 ?
Response: false (0)

Query: I'd appreciate it if you could say whether O=C(c1ccc(-n2nc3c(c2-c2cccc(C(F)(F)F)c2)CCC3)cc1)N1CC(N2CCN(C(=O)c3nccs3)CC2)C1 has pIC50 at least equal to 7.
Response: true (1)

Query: Could you please find out whether O=C1N[C@H](CCC(=O)N2CC3(CC(Oc4ccc(C(F)(F)F)nn4)C3)C2)CO1 has pIC50 that meets 7 or exceeds it?
Response: false (0)

Query: Is the recorded value of pIC50 equal to or greater than 7 for this compound? COc1cccc(C(=O)N2CCN3C[C@@H](c4cc(Br)c(Cl)cn4)OC[C@@H]3C2)c1Cl
Response: true (1)

Query: Does the reported pIC50 for O=C1CO[C@H]2CCN(C(=O)N3CC(c4ccc(C5CCC5)cc4)C3)C[C@H]2N1 fall at or above the 7 mark?
Response: true (1)
